Listed below: AC50 values for each entry.
test system: HMLE_sh_eGFP viability, CellTiter-Glo luminescence, 72 h; experiment: cytotoxicity in HMLE control line with eGFP shRNA, dose response, counter-screen for HMLE_sh_ECad selective toxicity project, cell-based, HMLE_sh_eGFP, luminescence (AID 463074);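 further: counterscreen control line to flag general toxicity for the HMLE_sh_ECad screen; potency for loss of viability as luminescence drops below DMSO wells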
parameter_measured: AC50

>>> observed("O=C(NCC1CCCCC1)c1cc2ccccc2cc1O")
"7.79 µM"
>>> observed("CCN(CC)Cc1c(O)ccc2c1O/C(=C\\C=C\\c1ccccc1)C2=O")
"18.8 µM"
>>> observed("O=C(Nc1nc(-c2cc(Cl)sc2Cl)cs1)c1cccs1")
"2.42 µM"
>>> observed("CCOC(=O)C(C(=O)OCC)C(Nc1ccc(Br)cc1)c1ccccc1 (stereo not given)")
"19.8 µM"
>>> observed("CCCn1nc([N+](=O)[O-])c(C(C#N)c2nc3ccccc3o2)c(Cl)c1=O (stereo not given)")
"5.81 µM"
>>> observed("Cc1ccc(S(=O)(=O)N2[C@@H](c3ccc(C(C)(C)C)cc3)C(C(=O)O)=CC[C@H]2c2cccc(Cl)c2)cc1")
"4.26 µM"
>>> observed("NC(=O)c1ccc(NC(=O)COC(=O)c2c3c(nc4ccccc24)/C(=C\\c2cccs2)CCC3)cc1")
"10.3 µM"
>>> observed("COc1cc(/C=C(/C#N)c2nc3ccccc3[nH]2)ccc1OCC(=O)Nc1ccccc1C")
"1.06 µM"
>>> observed("O=S(=O)(Nc1ccc(-n2cccc2)cc1)c1ccc(Cl)c(Cl)c1")
"5.21 µM"
>>> observed("CCc1ccc(CCC(=O)Nc2ncc(Cc3ccccc3Cl)s2)o1")
"0.322 µM"

---

Listed below: AC50 values for each entry.
tested on: HMLE_sh_eGFP viability, CellTiter-Glo luminescence, 72 h; experiment: cytotoxicity in HMLE control line with eGFP shRNA, dose response, counter-screen for HMLE_sh_ECad selective toxicity project, cell-based, HMLE_sh_eGFP, luminescence (AID 463074)
parameter_measured: AC50

>>> observed("COCCNC(=O)c1c[nH]c2ccc(S(=O)(=O)N3CCc4ccccc43)cc2c1=O")
"5.53 µM"
>>> observed("Cc1ccnc(NC(=O)CSc2cc(=O)n(C)c3ccccc23)c1")
"8.16 µM"
>>> observed("COc1cccc(/C=C/C(=O)c2ccc(NS(=O)(=O)c3ccc(C)cc3)cc2)c1")
"3.22 µM"
>>> observed("CC(C)=CCCC1(C)C=Cc2c(c(C)cc3c2[nH]c2cc(O)ccc23)O1 (stereo not given)")
"6.29 µM"
>>> observed("Cc1cccc(Cn2cc(/C=C/[N+](=O)[O-])c3ccccc32)c1")
"3.47 µM"
>>> observed("COc1ccc(/C=C/C(=O)c2ccccc2)cc1Cn1nnc2ccccc21")
"6.28 µM"
>>> observed("COc1cccc(-c2sc3ccc(OC)cc3c2C#CCCO)c1")
"8.26 µM"
>>> observed("CCn1cc([N+](=O)[O-])c(C(=O)Nc2nc(-c3ccc(C)cc3)c(C)s2)n1")
"5.54 µM"
>>> observed("CN1CC(c2ccccc2)C2(SC(=S)N(Cc3ccco3)C2=O)C12C(=O)Nc1ccccc12 (stereo not given)")
"7.31 µM"
>>> observed("CC(=O)n1c2c(c3ccccc31)OC(N)=C(C#N)C2c1cccc(Cl)c1Cl (stereo not given)")
"4.88 µM"

---

Listed below: AC50 values for each entry.
test system: HMLE_sh_eGFP viability, CellTiter-Glo luminescence, 72 h; test: cytotoxicity in HMLE control line with eGFP shRNA, dose response, counter-screen for HMLE_sh_ECad selective toxicity project, cell-based, HMLE_sh_eGFP, luminescence (AID 463074);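 further: counterscreen control line to flag general toxicity for the HMLE_sh_ECad screen; potency for loss of viability as luminescence drops below DMSO wells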
parameter_measured: AC50

>>> observed("CCC1CSC(Nc2ccc(C(=O)/C=C/c3cccc(C)c3)cc2)=N1 (stereo not given)")
"5.56 µM"
>>> observed("O=C(NCCCN1CCOCC1)c1ccc(CSc2ccc(Cl)cc2)cc1")
"7.77 µM"
>>> observed("Cc1ccc(CNc2nc(-c3cccs3)nc3ccccc23)cc1")
"8.41 µM"
>>> observed("CCOc1cc(/C=C\\c2[nH]c(=O)[nH]c(=O)c2[N+](=O)[O-])ccc1OC(C)CC (stereo not given)")
"8.32 µM"
>>> observed("Nc1nc(=S)c2ncn([C@@H]3O[C@H](CO)[C@@H](O)[C@H]3O)c2[nH]1")
"0.465 µM"

---

tested on: HMLE_sh_eGFP viability, CellTiter-Glo luminescence, 72 h; test: cytotoxicity in HMLE control line with eGFP shRNA, dose response, counter-screen for HMLE_sh_ECad selective toxicity project, cell-based, HMLE_sh_eGFP, luminescence (AID 463074);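 further: counterscreen control line to flag general toxicity for the HMLE_sh_ECad screen; potency for loss of viability as luminescence drops below DMSO wells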
Activity calls are given as the source filed them.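 The calls were made as follows: active = AC50 no more than tenfold above the top dose tested, or full inhibition at every dose with a flat fit (cut at about 19 µM in these data); inconclusive = flat curve fit with inhibition between 30% and 70%, or poor fit; inactive = AC50 more than tenfold above the top dose tested.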
Outcomes: active, inactive

>>> class_name("N#Cc1c(-c2ccccc2)cc(-c2ccccc2)nc1SCCC(=O)O")
"active"
>>> class_name("CN(C)CCNC=C(C(=O)Nc1ccc(Cl)cc1Cl)C(=O)Nc1ccc(Cl)cc1Cl")
"active"
>>> class_name("COc1cccc2sc3cc(C#CC4(O)CCCCC4)ccc3c(=O)c12")
"active"
>>> class_name("C=CCn1cccc(/C=C/C(=O)c2ccc(C(C)(C)C)cc2)c1=S")
"active"
>>> class_name("O=C(Nc1ccc(F)cc1)c1nc(S(=O)(=O)Cc2ccccc2)ncc1Cl")
"active"
>>> class_name("CC(=O)c1ccc(NC(=O)c2ccc([N+](=O)[O-])o2)cc1")
"active"
>>> class_name("COc1ccc(OC)c(NC(=O)c2nc(S(=O)(=O)Cc3ccccc3)ncc2Cl)c1")
"active"
>>> class_name("NCCc1ccc(OCc2ccccc2)c(OCc2ccccc2)c1")
"active"
>>> class_name("O=C(Nc1ccc(C(F)(F)F)cc1)c1cccn(Cc2ccc3c(c2)OC(F)(F)O3)c1=O")
"active"
>>> class_name("CC(C)(C)c1cc(NCc2ccccn2)n2ncc(-c3ccccc3)c2n1")
"active"
>>> class_name("CC(c1ccccc1)N1C(=O)/C(=C/c2ccncc2)SC1=S (configuration not stated)")
"active"
>>> class_name("Cc1ccc(S(=O)(=O)N(C)c2ccc(OCc3cccc(C)c3)cc2)cc1")
"active"
>>> class_name("CCCN1CCc2c(sc(NC(=O)c3ccc(S(=O)(=O)N(C)c4ccccc4)cc3)c2C(=O)NC)C1")
"active"
>>> class_name("CC(C)(C)NC(=O)Cn1nnc(-c2ccc(OCc3c(F)cccc3Cl)cc2)n1")
"active"
>>> class_name("CCCCNc1c(-c2ccc(SC3CCCCC3)c(OC)c2)nc2ccc(C)cn12")
"active"
>>> class_name("CN(C)CCOc1ccc(-c2c(-c3ccccc3)sc3ccccc23)cc1")
"active"
>>> class_name("Oc1ccc(/C=N/Nc2nc(-c3ccc(Cl)cc3)cc(C(F)(F)F)n2)cc1")
"active"
>>> class_name("Cn1c(/C(C#N)=C(\\O)COc2ccc3ccccc3c2)nc2ccccc21")
"active"
>>> class_name("CCCCCCSc1cc(-c2nc3cnccn3c2NCCCC)ccc1OC")
"active"
>>> class_name("O=C(O)c1cc(O)ccc1NC(=O)C(c1ccccc1)c1ccccc1")
"inactive"
>>> class_name("FC(F)(F)c1cc(CCN2C(=S)NC[C@@H]2CC2CCCCC2)cc(C(F)(F)F)c1")
"active"
>>> class_name("CC(CNC(=S)Nc1cc(F)cc(F)c1)CSc1ccc(Cl)cc1 (configuration not stated)")
"active"

---

system: HMLE_sh_eGFP viability, CellTiter-Glo luminescence, 72 h; test: cytotoxicity in HMLE control line with eGFP shRNA, dose response, counter-screen for HMLE_sh_ECad selective toxicity project, cell-based, HMLE_sh_eGFP, luminescence (AID 463074);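 further: counterscreen control line to flag general toxicity for the HMLE_sh_ECad screen; potency for loss of viability as luminescence drops below DMSO wells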
Active and inactive are the calls of the source.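 Rule for the calls: active = AC50 no more than tenfold above the top dose tested, or full inhibition at every dose with a flat fit (cut at about 19 µM in these data); inconclusive = flat curve fit with inhibition between 30% and 70%, or poor fit; inactive = AC50 more than tenfold above the top dose tested.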
Outcomes: y (active), n (inactive)

>>> class_name("CC(=O)Oc1ccc2c(=O)c(-c3nc4ccccc4s3)coc2c1")
"y"
>>> class_name("CCN1C(=O)/C(=C\\N2CCN(c3cccc(Cl)c3)CC2)SC1=S")
"n"
>>> class_name("O=C(Nc1ccc(Nc2ccccc2)cc1)Nc1ccccc1Cl")
"y"
>>> class_name("CC(C)(C)C1CCc2c(sc(NC(=O)CSc3ncn[nH]3)c2C#N)C1 (stereo unspecified)")
"y"
>>> class_name("O=C(c1cnn2c1NC(c1ccc(Br)cc1)CC2C(F)(F)F)N1CCN2CCCC2C1 (stereo unspecified)")
"y"
>>> class_name("COc1cc(OC)cc(C(=O)NCCNc2nc3cc(C)cc(C)c3cc2C#N)c1")
"n"
>>> class_name("O=C(Nc1ccc(N2CCN(Cc3ccccc3F)CC2)cc1)c1ccc([N+](=O)[O-])o1")
"y"
>>> class_name("CC1=NOC(=O)/C1=C\\c1ccc(-c2cc(Cl)ccc2Cl)o1")
"y"
>>> class_name("CN1CCN(c2ccc(NC(=O)COc3ccc(Cl)cc3Cl)cc2)CC1")
"y"
>>> class_name("O=[N+]([O-])c1cccnc1N1CCC(c2cc(-c3ccc(Cl)cc3Cl)n[nH]2)CC1")
"y"
>>> class_name("CCCNC(=O)c1onc(CSc2ccc(Cl)cc2)c1C(=O)NCCC(C)C")
"y"
>>> class_name("O=c1oc2ccccc2c(O)c1Cc1cc(Cl)c2cccnc2c1O")
"y"
>>> class_name("CNC(=O)NC(=O)C(C)OC(=O)c1c2c(nc3ccccc13)/C(=C/c1cccs1)CC2 (stereo unspecified)")
"y"
>>> class_name("O=C(Cc1ccc(Cl)c(Cl)c1)Nc1ccc(SC(F)F)cc1")
"y"
>>> class_name("CCN1CCN(Cc2ccc(NC(=O)c3cc(NC(=O)c4cnn(-c5ccccc5)c4N)cc(OC)c3)cc2C(F)(F)F)CC1")
"y"
>>> class_name("CC1=NN(c2ccccc2)C(=O)/C1=C/C=C/c1ccccc1")
"y"
>>> class_name("O=C1CC(c2ccc(F)cc2)CC2=C1C=Nc1ccccc1N2 (stereo unspecified)")
"n"
>>> class_name("CCCSc1nnc(CSc2nc3ccccc3s2)n1-c1ccccc1")
"y"
>>> class_name("O=C(/C=C/c1ccccc1)NC(NC(=S)Nc1cc(Cl)ccc1Cl)C(Cl)(Cl)Cl (stereo unspecified)")
"y"
>>> class_name("COc1ccc(C(=O)/C=C/c2ccc(OCc3ccccc3)cc2)cc1CSCC(=O)O")
"y"
>>> class_name("Cc1cc([N+](=O)[O-])nn1Cc1ccc(C(=O)N/N=C/c2ccc(O)cc2O)cc1")
"y"
